Test system: S. enterica typhimurium WT
ASSAY DETAILS: growth AUC normalised to DMSO control (median) (fraction of control); higher = less growth inhibition, active = hit call of the paper
CONDITION: 20 µM
Structures can show the parent of a compound that is named as a salt.
PARAMETER: growth AUC normalised to DMSO control
// return a plain number; no unit text

[in] Fill in: growth AUC normalised to DMSO control of `Cc1c(O)c(=O)ccn1C` is ___
[out] 1

[in] What value of growth AUC normalised to DMSO control has been recorded for this entry: Cc1nccn1CC1CCc2c(c3ccccc3n2C)C1=O (stereo not drawn) [Ondansetron hydrochloride]
[out] 1

[in] Give the measured growth AUC normalised to DMSO control of `CNCc1cc(-c2ccccc2F)n(S(=O)(=O)c2cccnc2)c1` .
[out] 1

* * *

Form field: growth AUC normalised to DMSO control (one value per entry).
Test system: P. vulgatus WT
ASSAY DETAILS: growth AUC normalised to DMSO control (median) (fraction of control); higher = less growth inhibition, active = hit call of the paper
CONDITION: 20 µM
Keep it simple and answer with nothing but the number.

# example entries with known answers
MOLECULE	growth AUC normalised to DMSO control
CC(C)c1c(C(=O)Nc2ccccc2)c(-c2ccccc2)c(-c2ccc(F)cc2)n1CC[C@@H](O)C[C@@H](O)CC(=O)O	1
CC(=O)Oc1cc(C(C)C)c(OCCN(C)C)cc1C [Moxisylyte hydrochoride]	1

We next turn to a different molecule, shown below.
[in] Reported growth AUC normalised to DMSO control, molecule O=C1CCC(N2C(=O)c3ccccc3C2=O)C(=O)N1 (stereo not drawn) [Thalidomide] : ____
[out] 1.01

* * *

Listed compounds paired with reported growth AUC normalised to DMSO control
Test system: Yersinia pseudotuberculosis
ASSAY DETAILS: growth AUC normalised to DMSO control (fraction of control); higher = less growth inhibition, active = hit call of the paper
CONDITION: 20 µM
Counter-ions that a name gives are not always drawn.
Keep the answer to the number alone.

[in] Which growth AUC normalised to DMSO control value is on record for CNCCCC12CCC(c3ccccc31)c1ccccc12 [Maprotiline hydrochloride] ?
[out] 1.01

[in] # input compound: CC(C)NCC(O)c1cc(O)cc(O)c1 (centres undefined) [Metaproterenol sulfate] ; wanted: its growth AUC normalised to DMSO control
[out] 0.988

[in] Which growth AUC normalised to DMSO control value belongs to CCOC(=O)[C@H](CCc1ccccc1)N[C@@H](C)C(=O)N1[C@H](C(=O)O)C[C@@H]2CCC[C@@H]21 [Ramipril] ?
[out] 1.01

[in] What value of growth AUC normalised to DMSO control has been reported for the following compound? CCCCC1C(=O)N(c2ccccc2)N(c2ccccc2)C1=O [Phenylbutazone]
[out] 1.01

[in] What value of growth AUC normalised to DMSO control has been reported for the following compound? CCOC1O[C@H]([C@@H](COCc2ccccc2)OCc2ccccc2)[C@H](OCc2ccccc2)[C@H]1O (some centres undefined) [Tribenoside]
[out] 0.988

[in] growth AUC normalised to DMSO control lookup needed for CCC1(C)CC(=O)NC1=O (centres undefined) [Ethosuximide] , thanks.
[out] 0.999

[in] What value of growth AUC normalised to DMSO control has been recorded for this entry: CN1CCCCC1CCN1c2ccccc2Sc2ccc([S+](C)[O-])cc21 (centres undefined) [Mesoridazine besylate]
[out] 1.01

[in] Which growth AUC normalised to DMSO control value is on record for C[N+](C)(C)CCOC(N)=O [Carbachol chloride] ?
[out] 1.01

[in] Dear colleague, I am looking for the recorded growth AUC normalised to DMSO control of the following compound: COC(=O)CCc1ccc(OCC(O)CNC(C)C)cc1 (centres undefined) [Esmolol hydrochloride]
[out] 1

[in] For the compound shown here, CCC(=O)O[C@@H](O[P@](=O)(CCCCc1ccccc1)CC(=O)N1C[C@H](C2CCCCC2)C[C@H]1C(=O)O)C(C)C [Fosinopril] , give the reported growth AUC normalised to DMSO control.
[out] 1

[in] If you can, please state the reported growth AUC normalised to DMSO control value of Cc1c(C)c2c(c(C)c1O)CCC(C)(COc1ccc(CC3SC(=O)NC3=O)cc1)O2 (centres undefined) [Troglitazone] .
[out] 0.974

[in] Could you tell me which growth AUC normalised to DMSO control is on file for CC(C)NC[C@@H](O)COc1cccc2ccccc12 [(R) Propranolol hydrochloride] ?
[out] 0.999

[in] For CCCC(=O)Nc1ncnc2c1ncn2[C@@H]1O[C@@H]2COP(=O)(O)O[C@H]2[C@H]1OC(=O)CCC [Bucladesine sodium salt] , what is its reported growth AUC normalised to DMSO control?
[out] 0.998

[in] What growth AUC normalised to DMSO control value was documented for this compound, OCCN1CCN(CCCN2c3ccccc3Sc3ccc(C(F)(F)F)cc32)CC1 [Fluphenazine dihydrochloride] ?
[out] 1.01

[in] Record request: growth AUC normalised to DMSO control value, item CCOCCn1c(N2CCCN(C)CC2)nc2ccccc21 [Emedastine difumarate]
[out] 0.996

[in] Consider the compound Nc1nc(N)nc(-c2cc(Cl)ccc2Cl)n1 [Irsogladine maleate] and give its measured growth AUC normalised to DMSO control.
[out] 0.995

[in] Sample CCC1(c2ccccc2)NC(=O)N(C)C1=O (centres undefined) [Mephenytoin] — what was its growth AUC normalised to DMSO control?
[out] 1.01

[in] What value of growth AUC normalised to DMSO control has been reported for the following compound? COc1ccc(C(=O)c2ccccc2)c(O)c1 [Oxybenzone]
[out] 1

[in] Sample CN(C)CCC[C@@]1(c2ccc(F)cc2)OCc2cc(C#N)ccc21 [Escitalopram oxalate] — what was its growth AUC normalised to DMSO control?
[out] 0.99

* * *

We begin with a simple list: items and their reported growth AUC normalised to DMSO control.
Test system: P. vulgatus WT
ASSAY DETAILS: growth AUC normalised to DMSO control (median) (fraction of control); higher = less growth inhibition, active = hit call of the paper
CONDITION: 20 µM
Structures can show the parent of a compound that is named as a salt.
The reply should be a number, written without any unit.

COMPOUND	SYSTEM	EXPERIMENTAL VALUE
Nc1ccc(S(=O)(=O)c2ccc(N)cc2)cc1 [Dapsone]	P. vulgatus WT	1
CC[N+](CC)(CC)CCOc1cccc(OCC[N+](CC)(CC)CC)c1OCC[N+](CC)(CC)CC [Gallamine triethiodide]	P. vulgatus WT	1.02
CCN(CCCCOC(=O)c1ccc(OC)c(OC)c1)C(C)Cc1ccc(OC)cc1 (centres undefined) [Mebeverine hydrochloride]	P. vulgatus WT	1.01

Lab note: next compound to report on.
[in] Recorded growth AUC normalised to DMSO control of O=C(NCCNCC(O)COc1ccc(O)cc1)N1CCOCC1 (centres undefined) [Xamoterol hemifumarate] , please.
[out] 0.982

* * *

Test system: S. enterica typhimurium WT
ASSAY DETAILS: growth AUC normalised to DMSO control (median) (fraction of control); higher = less growth inhibition, active = hit call of the paper
CONDITION: 20 µM
Where a name gives a salt, the structure may show the parent alone.
PARAMETER: growth AUC normalised to DMSO control
Please reply with the number alone, leaving off any unit.

COMPOUND	PARAMETER	EXPERIMENTAL VALUE
Cc1ccnc(NS(=O)(=O)c2ccc(N)cc2)n1 [Sulfamerazine]	growth AUC normalised to DMSO control	0.986

[in] Entry under review: CCN(CC)CCOC(=O)C1(C2CCCCC2)CCCCC1 [Dicyclomine hydrochloride] . Reported growth AUC normalised to DMSO control?
[out] 0.999

[in] // returns reported growth AUC normalised to DMSO control for input CCCc1nn(C)c2c(=O)[nH]c(-c3cc(S(=O)(=O)N4CCN(C)CC4)ccc3OCC)nc12 [Sildenafil]
[out] 1.02

[in] Returns the measured growth AUC normalised to DMSO control for the input compound. Input: CC(=O)NC[C@H]1CN(c2ccc(N3CCOCC3)c(F)c2)C(=O)O1 [Linezolid]
[out] 0.918

[in] Please give the measured growth AUC normalised to DMSO control for this compound: OC(Cn1cncn1)(Cn1cncn1)c1ccc(F)cc1F [Fluconazole]
[out] 1.01

[in] Which growth AUC normalised to DMSO control is listed for CCCCC(=O)O[C@H]1CC[C@H]2[C@@H]3CCc4cc(O)ccc4[C@H]3CC[C@]12C [Estradiol Valerate] ?
[out] 0.998

[in] Requested read-out: growth AUC normalised to DMSO control. Entry: Nc1nc2ccc(OC(F)(F)F)cc2s1 [Riluzole hydrochloride]
[out] 0.979

* * *

Test system: P. vulgatus RND KO
ASSAY DETAILS: growth AUC normalised to DMSO control (median) (fraction of control); higher = less growth inhibition, active = hit call of the paper
CONDITION: 20 µM
Listed next: entries and their corresponding growth AUC normalised to DMSO control.
Just the number, please, no unit after it.

COMPOUND	growth AUC normalised to DMSO control
CC(C)(Sc1cc(C(C)(C)C)c(O)c(C(C)(C)C)c1)Sc1cc(C(C)(C)C)c(O)c(C(C)(C)C)c1	1
O=C(O)c1cc(/N=N/c2ccc(S(=O)(=O)Nc3ccccn3)cc2)ccc1O	1

Please examine the following record next.
[in] Using the record for O=C(CCCCC(=O)Nc1c(I)cc(I)c(C(=O)O)c1I)Nc1c(I)cc(I)c(C(=O)O)c1I [Iodipamide] , report its growth AUC normalised to DMSO control.
[out] 1.01
